Target: C-X-C chemokine receptor type 6 (Homo sapiens)
Experiment: potency against CXCR6 with APJ panel – cell-based, beta-arrestin, DiscoveRx, uHTS hits, dose response (AID 624129)
Settings: CXCR6 beta-arrestin (DiscoveRx) antagonist cell assay, CXCR6, run 2, dose range 2
parameterMeasured: pIC50
By convention, pIC50 is the negative base-10 log of a molar concentration.

Incoming: Query for C-X-C chemokine receptor type 6 (Homo sapiens): what pIC50 does the record show for COc1ccc(C(=O)/C(=C\c2ccco2)N2C=CC=CC2=C(C#N)C#N)cc1 ?
Outgoing: 5.30

Incoming: Please do the same for Fc1ccc(NC(=S)NNc2ncc(C(F)(F)F)cc2Cl)c(F)c1 as well.
Outgoing: 4.92

Incoming: Please do the same for CC(=O)N1N=C(c2cccs2)CC1c1cccc([N+](=O)[O-])c1 (configuration not stated) as well.
Outgoing: 4.59

Incoming: Please do the same for Cc1ccc(NC(=S)NNc2ncc(C(F)(F)F)cc2Cl)cc1 as well.
Outgoing: 4.78

Incoming: Please do the same for Cc1ccc2c(Cl)cc(Cl)c(O)c2n1 as well.
Outgoing: 5.53

Incoming: Please do the same for Cc1cccc(CS(=O)(=O)c2ncc(Cl)c(C(=O)NCc3ccccc3)n2)c1 as well.
Outgoing: 4.83

Incoming: Please do the same for N#C/C(=C/c1ccc(-c2ccc([N+](=O)[O-])cc2)o1)C(=O)Nc1nc(-c2cccs2)cs1 as well.
Outgoing: 4.50

Incoming: Please do the same for CC(=O)Nc1ccc2c(c1)Cc1cc(N3C(=O)C=CC3=O)ccc1-2 as well.
Outgoing: 4.84

Incoming: Please do the same for CC(Oc1ccc(F)cc1)C(=O)Nc1nc(-c2ccccn2)cs1 (configuration not stated) as well.
Outgoing: 5.11

Incoming: Please do the same for CCOc1cc(/C=C2\N=C(SCC)SC2=O)cc([N+](=O)[O-])c1OC(C)=O as well.
Outgoing: 4.26

Incoming: Please do the same for CCOC(=O)C1=C(C)NC2=C(C(=O)CC(c3cccs3)C2)C1c1cccs1 (configuration not stated) as well.
Outgoing: 4.66

Incoming: Please do the same for CC1=C(O)C(=O)C=C2C1=CC=C1C2(C)CCC2(C)C3CC(C)(C(=O)O)CCC3(C)CCC12C (configuration not stated) as well.
Outgoing: 4.66

Incoming: Please do the same for CCC(=O)OCCNc1cc(SCCC(=O)OC)c2nonc2c1[N+](=O)[O-] as well.
Outgoing: 4.63

Incoming: Please do the same for O=C(Nc1ccccc1Cl)/C(Cl)=C(\Cl)S(=O)c1ccccc1 (configuration not stated) as well.
Outgoing: 4.99

Incoming: Please do the same for CCN(CC)CC(C)(C)C(=O)/C=C/c1ccc(/C=C/C(=O)C(C)(C)CN(CC)CC)cc1 as well.
Outgoing: 5.47

Incoming: Please do the same for Cc1nnc(Sc2cc(NCCO)c([N+](=O)[O-])c3nonc23)s1 as well.
Outgoing: 4.83

Incoming: Please do the same for O=C(Nc1ccccc1Oc1ccccc1)[C@@H]1O[C@H](CO)[C@H](O)[C@H](O)[C@H]1O as well.
Outgoing: 4.80

Incoming: Please do the same for CC(O)CN(CC(C)O)c1ccc2c(c1)Cc1cc([N+](=O)[O-])ccc1-2 (configuration not stated) as well.
Outgoing: 4.64

Incoming: Please do the same for C=CCOc1ccc(C=NNc2ccc(S(=O)(=O)Nc3ccccc3C(=O)O)cc2[N+](=O)[O-])cc1OC as well.
Outgoing: 4.55

Incoming: Please do the same for COc1cccc2sc(N(CCCN(C)C)C(=O)CCS(=O)(=O)c3ccccc3)nc12 as well.
Outgoing: 4.80

Incoming: Please do the same for CCCOc1cccc(-c2cc(C(=O)N/N=C/c3ccccn3)c3ccccc3n2)c1 as well.
Outgoing: 5.17

Incoming: Please do the same for Cc1cc2nc(N3C(=O)CNC3=S)sc2cc1C as well.
Outgoing: 4.83

Incoming: Please do the same for CCOC(=O)c1cc([N+](=O)[O-])c([N+](=O)[O-])cc1NC(C)=O as well.
Outgoing: 4.81

Incoming: Please do the same for CC(=O)OC1CCC2(C)C(CCC3C4CC=C(C(C)=O)C4(C)OC(=O)CC32)C1 (configuration not stated) as well.
Outgoing: 4.59

Incoming: Please do the same for O=[N+]([O-])c1c(Nc2ccc(O)cc2)cc(Cl)c2nonc12 as well.
Outgoing: 5.58

Incoming: Please do the same for CC(=O)OC1C2(CC3N4C(=O)C5(CO)SSC4(CC31O)C(=O)N5C)OC(C)C(C)(C)C2=O (configuration not stated) as well.
Outgoing: 6.27

Incoming: Please do the same for CCCOc1ccc(CN(CCC#N)C(=S)NC(=O)c2ccccc2)cc1 as well.
Outgoing: 4.53

Incoming: Please do the same for FC(F)(F)c1cnc(NNC(=S)Nc2ccc(Cl)cc2)c(Cl)c1 as well.
Outgoing: 4.85

Incoming: Please do the same for CNc1ccc2oc(C[C@H]3O[C@@]4(CC[C@H]3C)O[C@H]([C@H](C)C(=O)c3ccc[nH]3)[C@H](C)C[C@H]4C)nc2c1C(=O)O as well.
Outgoing: 4.82

Incoming: Please do the same for NNc1nc(-c2ccccc2)cc(-c2ccccc2O)n1 as well.
Outgoing: 5.20

Incoming: Please do the same for C/C(=N\NC(=O)Cn1c(-c2ccccn2)nc2ccccc21)c1ccccc1 as well.
Outgoing: 5.07

Incoming: Please do the same for CC1=CC(C)(C)N2C(=O)C(=Nc3ccc(O)cc3)c3cccc1c32 as well.
Outgoing: 4.42

Incoming: Please do the same for COC(=O)c1ccc(C)c(-n2c(=O)n(Cc3ccccc3)c(=O)c3[nH]cnc32)c1 as well.
Outgoing: 4.85

Incoming: Please do the same for CCS(=O)(=O)c1ncc(Cl)c(C(=O)Nc2ccc(S(=O)(=O)N3CCCC(C)C3)cc2)n1 (configuration not stated) as well.
Outgoing: 5.05

Incoming: Please do the same for Cc1cc(C)cc(N2C(=O)CC(Sc3nnnn3-c3ccccc3)C2=O)c1 (configuration not stated) as well.
Outgoing: 4.82

Incoming: Please do the same for O=C(Nc1ccc(F)cc1)c1nc(S(=O)(=O)Cc2ccccc2)ncc1Cl as well.
Outgoing: 4.87

Incoming: Please do the same for CCc1cc2c(=O)[nH]c(-c3ccccn3)nc2s1 as well.
Outgoing: 5.89

Incoming: Please do the same for CCC(=O)OCCNc1cc(Sc2nc3ccccc3s2)c2nonc2c1[N+](=O)[O-] as well.
Outgoing: 5.24

Incoming: Please do the same for CCCCC(=O)NC(=S)Nc1ccccc1C(=O)Nc1ccccc1 as well.
Outgoing: 4.91

Incoming: Please do the same for Cc1ccsc1/C=C/c1ccc2cccc(O)c2n1 as well.
Outgoing: 5.42

Incoming: Please do the same for Nc1ccccc1C#CC(=O)c1ccccc1 as well.
Outgoing: 4.81

---

Biological target: C-C chemokine receptor type 6 (Homo sapiens) (UniProt P51684)
Assay: potency against CXCR6 with APJ panel – cell-based, beta-arrestin, DiscoveRx, uHTS hits, dose response (AID 624129)
Settings: CXCR6 beta-arrestin (DiscoveRx) antagonist cell assay, CCR6, dose range 1, mean IC50 across replicates
parameterMeasured: log10 of IC50 (log10 of the value in µM)
Values below are the log10 of the recorded IC50, with µM as the unit.

Incoming: Would you kindly share the measured log10 of IC50 for O=[N+]([O-])c1ccc(Sc2cccc3cccnc23)c([N+](=O)[O-])c1 ?
Outgoing: 0.62

Incoming: Please do the same for C/C(=N\NC(=O)Cn1c(-c2ccccn2)nc2ccccc21)c1ccccc1 as well.
Outgoing: 1.21

Incoming: Please do the same for Cc1cc(C)c2c(=O)n(CC(=O)Nc3cccc(Cl)c3C)sc2n1 as well.
Outgoing: 0.43

Incoming: Please do the same for CN(CCO)c1cc(Sc2nc3ccccc3s2)c2nonc2c1[N+](=O)[O-] as well.
Outgoing: 0.75

Incoming: Please do the same for CC(C)c1ccc(O)c(NC(=S)NC(=O)c2cccnc2)c1 as well.
Outgoing: 1.00

Incoming: Please do the same for C=CCn1nc([N+](=O)[O-])nc1Sc1cccc2cccnc12 as well.
Outgoing: 1.55

Incoming: Please do the same for Cn1c(O)c(C2=NNC(c3ccc(Cl)cc3)C2)c(=O)n(C)c1=O (stereo unspecified) as well.
Outgoing: 1.13

Incoming: Please do the same for C/C(=N\NC(=O)Cc1ccc(Cl)cc1)c1ccccn1 as well.
Outgoing: 0.54

Incoming: Please do the same for Cc1cc(S(=O)(=O)c2ccc(Cl)cc2)nc(S(=O)(=O)c2ccc(Cl)cc2)c1C#N as well.
Outgoing: 1.48

Incoming: Please do the same for C=C1CC2(OC1=O)c1ccccc1CCc1ccccc12 as well.
Outgoing: 1.11

Incoming: Please do the same for COC(=O)c1ccc2c(c1)C(C)(C)C(/C=C/c1ccccc1O)=[N+]2C as well.
Outgoing: 1.05
